Species on record: Rattus norvegicus
Test: Open TG-GATES - Regimen: Daily Repeat
Type: toxicity, organism-based, Sprague-Dawley
Parameters: regimen Daily Repeat, gender Male, age 6 weeks
Settings: in vivo, po, 1000 mg/kg, […], tissue Plasma, route gavage, dose level High, time 28 day
Please provide measured TP for the entries that follow.
Response body: numeric value in g/dL, unit text excluded.

Ask: What value of measured TP is listed for Cc1nnc2n1-c1ccc(Cl)cc1C(c1ccccc1Cl)=NC2 [TRIAZOLAM] ?
Reply: 6.1

Ask: Proceed to CN/C(=N/CCSCc1nc[nH]c1C)NC#N [CIMETIDINE]
Reply: 5.9

Ask: Proceed to COC(=O)C1=C(C)NC(C)=C(C(=O)OC)C1c1ccccc1[N+](=O)[O-] [NIFEDIPINE]
Reply: 6

Ask: Proceed to CCOc1ccc(NC(C)=O)cc1 [PHENACETIN]
Reply: 6.3

Ask: Proceed to O=C(OC[C@H]1O[C@@H](OC(=O)c2cc(O)c(O)c(OC(=O)c3cc(O)c(O)c(O)c3)c2)[C@H](OC(=O)c2cc(O)c(O)c(OC(=O)c3cc(O)c(O)c(O)c3)c2)[C@@H](OC(=O)c2cc(O)c(O)c(OC(=O)c3cc(O)c(O)c(O)c3)c2)[C@@H]1OC(=O)c1cc(O)c(O)c(OC(=O)c2cc(O)c(O)c(O)c2)c1)c1cc(O)c(O)c(OC(=O)c2cc(O)c(O)c(O)c2)c1 [TANNIC ACID]
Reply: 6

Ask: Proceed to CNC(=C[N+](=O)[O-])NCCSCc1ccc(CN(C)C)o1 [RANITIDINE]
Reply: 6.1
